- protocol_notes: in vitro
- reported_conditions: rat, gh3-tre-luc cells, AC50 (uM) modified / 1000, Tox21_110001=Tox21_302231; viability, 1 nM T3 present, 24 h

{"smiles_structure": "O=c1c2ccccc2c(=O)c2c1cc(Cl)c1[nH]c3c([nH]c12)c(Cl)cc1c(=O)c2ccccc2c(=O)c13", "CC50 at 24 h": "> 90 µM"}

====

- Tested on: GH3-TRE-Luc cell line
- reported_conditions: read-out: AC50 (uM) modified / 1000; Tox21_110001=Tox21_112066; viability, 1 nM T3 present, 24 h
recorded_metric: CC50

{"smiles_structure": "CO[C@@H]1[C@H](OC(=O)/C=C/C=C/C=C/C=C/C(=O)O)CC[C@]2(CO2)[C@H]1[C@@]1(C)O[C@@H]1CC=C(C)C", "recorded_metric": "CC50", "reading": "42.9 µM"}

====

- protocol_notes: in vitro
- reported_conditions: rat, gh3-tre-luc cells, AC50 (uM) modified / 1000, Tox21_110001=Tox21_302008; viability, 1 nM T3 present, 24 h
recorded_metric: CC50 at 24 h

{"compound": "C#CCOC(=O)/C=C(C)/C=C/CC(C)CCCC(C)C (stereo not shown) [Kinoprene]", "reading": "> 90 µM"}

====

- protocol_notes: in vitro
- reported_conditions: rat, gh3-tre-luc cells, AC50 (uM) modified / 1000
Quick reference: CC50 at 24 h of the listed items.

{"compound": "Cc1noc(NS(=O)(=O)c2ccc(N)cc2)c1C", "CC50 at 24 h": "> 50 µM"}
{"compound": "CC1(C)CC(=O)CC(C)(C)N1", "CC50 at 24 h": "> 90 µM"}
{"compound": "CCCN(CCC)C(=O)C(CCC(=O)OCCCN1CCN(CCOC(=O)Cc2c(C)n(C(=O)c3ccc(Cl)cc3)c3ccc(OC)cc23)CC1)NC(=O)c1ccccc1 (centres unmarked)", "CC50 at 24 h": "10.5 µM"}
{"compound": "O=C(c1ccccc1)c1ccc(O)c(O)c1O [2,3,4-Trihydroxbenzophenone]", "CC50 at 24 h": "75 µM"}
{"compound": "CC(C)C(=O)OC(=O)C(C)C [Isobutyric anhydride]", "CC50 at 24 h": "> 90 µM"}
{"compound": "CSc1nc2cc(Cl)c(Oc3cccc(Cl)c3Cl)cc2[nH]1", "CC50 at 24 h": "28.5 µM"}
{"compound": "CC(C)(COP(=O)(O)OP(=O)(O)OC[C@H]1O[C@@H](n2cnc3c(N)ncnc32)[C@H](O)[C@@H]1OP(=O)(O)O)C(O)C(=O)NCCC(=O)NCCS (some centres unmarked) [Coenzyme A trilithium dihydrate]", "CC50 at 24 h": "> 50 µM"}
{"compound": "CCN1C(=O)c2ccccc2C1Nc1ccc(OCCN2CCCCC2)cc1 (centres unmarked)", "CC50 at 24 h": "> 50 µM"}
{"compound": "CCN1CCCC1=O", "CC50 at 24 h": "> 90 µM"}
{"compound": "CCO[Si](C)(CCCOCC1CO1)OCC (centres unmarked)", "CC50 at 24 h": "> 90 µM"}
{"compound": "CCNc1nc(N)nc(Cl)n1", "CC50 at 24 h": "> 90 µM"}
{"compound": "C=C(C)C(=O)OCC(C)C [Isobutyl methacrylate]", "CC50 at 24 h": "> 90 µM"}
{"compound": "c1ccc2c(c1)Sc1ccccc1N2C[C@@H]1CN2CCC1CC2", "CC50 at 24 h": "> 50 µM"}
{"compound": "CCCCCCCCCCCCCCO", "CC50 at 24 h": "> 90 µM"}
{"compound": "CCCC[N+]1(C)CCCCC1", "CC50 at 24 h": "> 90 µM"}
{"compound": "CCCCCCCCCCCCOCCOCCOCCOCCOCCOCCOCCOCCOCCO", "CC50 at 24 h": "9.84 µM"}
{"compound": "C/C=C(\\C)C(=O)OCCc1ccccc1 [Phenethyl tiglate]", "CC50 at 24 h": "> 90 µM"}
{"compound": "COc1cc([C@@H]2c3cc4c(cc3[C@@H](O[C@@H]3O[C@@H]5CO[C@@H](c6cccs6)O[C@H]5[C@H](O)[C@H]3O)[C@H]3COC(=O)[C@H]23)OCO4)cc(OC)c1O [Teniposide]", "CC50 at 24 h": "4.5 µM"}
{"compound": "CCCCCCOC(C)=O [Hexyl acetate]", "CC50 at 24 h": "> 90 µM"}
{"compound": "C[C@@H](O)[C@H](N)C(=O)O", "CC50 at 24 h": "> 50 µM"}

====

- protocol_notes: in vitro
- reported_conditions: rat, gh3-tre-luc cells, AC50 (uM) modified / 1000, Tox21_110001=Tox21_110988; viability, 1 nM T3 present, 24 h
Structures can show the parent of a compound that is named as a salt.

{"compound": "COC(=O)c1cncn1C(C)c1ccccc1 (stereo not shown) [Metomidate hydrochloride]", "CC50 at 24 h": "> 50 µM"}

====

- protocol_notes: in vitro
- reported_conditions: rat, gh3-tre-luc cells, AC50 (uM) modified / 1000

{"compound": "C[C@H]1[C@H](NC(=O)/C(=N\\OC(C)(C)C(=O)O)c2csc(N)n2)C(=O)N1S(=O)(=O)O [Aztreonam]", "CC50 at 24 h": "> 20 µM"}
{"compound": "c1ccc2sc(SSc3nc4ccccc4s3)nc2c1 [2,2'-Dithiobisbenzothiazole]", "CC50 at 24 h": "> 50 µM"}
{"compound": "C=CCCC [1-Pentene]", "CC50 at 24 h": "> 90 µM"}
{"compound": "Cl[Si](Cl)(c1ccccc1)c1ccccc1 [Dichlorodiphenylsilane]", "CC50 at 24 h": "> 90 µM"}
{"compound": "CCCCOC(=O)c1ccc(O)cc1 [Butylparaben]", "CC50 at 24 h": "> 50 µM"}
{"compound": "COC(=O)C(C)=O [Methylpyruvate]", "CC50 at 24 h": "> 90 µM"}
{"compound": "O=C(NNCNNC(=O)c1ccncc1)c1ccncc1 [Metazide]", "CC50 at 24 h": "> 50 µM"}
{"compound": "CCN1C(=O)NC(c2ccccc2)C1=O (stereo not shown) [Ethotoin]", "CC50 at 24 h": "> 20 µM"}
{"compound": "O=C1CCc2ccccc2O1 [3,4-Dihydrocoumarin]", "CC50 at 24 h": "> 90 µM"}
{"compound": "Nc1cccc2c(=O)[nH][nH]c(=O)c12 [Luminol]", "CC50 at 24 h": "> 90 µM"}
{"compound": "CCCCCCCC(=O)O [Octanoic acid]", "CC50 at 24 h": "> 90 µM"}
{"compound": "CC(C)N=C=NC(C)C [Diisopropylcarbodiimide]", "CC50 at 24 h": "> 90 µM"}
{"compound": "CCNc1nc(Cl)nc(NCC)n1 [Simazine]", "CC50 at 24 h": "> 90 µM"}
{"compound": "CC1(C)C2(Cl)C(Cl)C(Cl)C(Cl)(C(Cl)Cl)C1(Cl)C2Cl (stereo not shown) [Strobane]", "CC50 at 24 h": "21 µM"}
{"compound": "C[C@H]1C[C@H]2[C@@H]3CCC4=CC(=O)C=C[C@]4(C)[C@H]3C(=O)C[C@]2(C)[C@@]1(O)C(=O)CO [Meprednisone]", "CC50 at 24 h": "> 50 µM"}
{"compound": "CC(CN)CCCN (stereo not shown)", "CC50 at 24 h": "> 90 µM"}
{"compound": "CC(O)COC(C)COC(C)CO (stereo not shown) [Tripropylene glycol]", "CC50 at 24 h": "> 90 µM"}
{"compound": "C[C@]12C=CC(=O)C=C1[C@@H](F)C[C@@H]1[C@@H]2[C@@H](O)C[C@@]2(C)[C@H]1CC[C@]2(O)C(=O)CO [Fluprednisolone]", "CC50 at 24 h": "> 50 µM"}
{"compound": "c1cc2c3c(cccc3c1)CC2 [Acenaphthene]", "CC50 at 24 h": "> 90 µM"}
{"compound": "CC(C(O)c1ccc(O)cc1)N1CCC(Cc2ccccc2)CC1 (stereo not shown) [Ifenprodil]", "CC50 at 24 h": "19.6 µM"}
{"compound": "O=C(Cn1ccnc1[N+](=O)[O-])NCCO [Etandazole]", "CC50 at 24 h": "> 50 µM"}
{"compound": "CC(=O)O[C@@H]1C[C@@H]2CC[C@@]1(C)C2(C)C [Bornyl acetate]", "CC50 at 24 h": "> 90 µM"}

====

Attribute: Emax
- measurement_target: human TRβ ligand-binding domain (Homo sapiens)
- Sequence (P10828 217-461 limits assumed): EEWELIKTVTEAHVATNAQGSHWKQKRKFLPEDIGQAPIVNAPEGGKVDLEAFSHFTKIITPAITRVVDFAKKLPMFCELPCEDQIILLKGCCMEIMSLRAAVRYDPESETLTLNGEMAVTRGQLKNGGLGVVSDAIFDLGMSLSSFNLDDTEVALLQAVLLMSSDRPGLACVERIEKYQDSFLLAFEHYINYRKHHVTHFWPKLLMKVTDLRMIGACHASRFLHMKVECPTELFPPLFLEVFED
- protocol_notes: TRb-coa LanthaScreen TR-FRET coactivator (SRC-2 peptide) recruitment, agonist (TOX21_TRB_COA_Agonist_Followup_ratio, aeid 2244)
- Assay type: biochemical
- Design: host or cells: GeneBLAzer UAS-bla HEK 293T
- reported_conditions: read-out: EMax (% of Control) trb-coa-agonist-followup-1
Counter-ions that a name gives are not always drawn.
recorded_metric: Emax (%)

{"compound": "O=c1[nH]cnc2c1ncn2[C@H]1CC[C@@H](CO)O1", "recorded_metric": "Emax", "reading": -0.448}
{"compound": "C=C(NC(=O)C(=C)NC(=O)c1csc(C2=N[C@@H]3c4csc(n4)[C@H]4NC(=O)c5csc(n5)[C@H]([C@](C)(O)[C@@H](C)O)NC(=O)[C@H]5CSC(=N5)/C(=C/C)NC(=O)[C@H]([C@@H](C)O)NC(=O)c5csc(n5)[C@]3(CC2)NC(=O)[C@H](C)NC(=O)C(=C)NC(=O)[C@H](C)NC(=O)[C@H]([C@@H](C)CC)N[C@@H]2C=Cc3c([C@H](C)O)cc(nc3[C@H]2O)C(=O)O[C@@H]4C)n1)C(N)=O", "recorded_metric": "Emax", "reading": -0.224}
{"compound": "COc1ccc(OC)c(C(O)C(C)N)c1 (stereo not drawn) [Methoxamine hydrochloride]", "recorded_metric": "Emax", "reading": 1.5}
{"compound": "COc1cc(C)c(/C=C/C(C)=C/C=C/C(C)=C/C(=O)O)c(C)c1C [Acitretin, reference compound]", "recorded_metric": "Emax", "reading": 4.8}
{"compound": "C[C@]12CC[C@H]3C(=CCc4cc(O)ccc43)[C@@H]1CCC2=O [Equilin, reference compound]", "recorded_metric": "Emax", "reading": -0.4}
{"compound": "Cc1cccc(C)c1[N+](=O)[O-]", "recorded_metric": "Emax", "reading": -0.3}
